system: MDA-MB-231; test: Antiproliferative activity against human MDA-MB-231 cells for 72 hrs by cyquant assay; assay type: functional, cell-based; conditions: MDA-MB-231, 72 h
Flag rule - IC50 less than 7 µM flags Criterion met; the remaining entries get Criterion not met.

>>> category_label("C/C=C(\\C)C(=O)OCC1=C2/C(=C\\[C@@]3(C)CC[C@](O)(O3)[C@H](C)C[C@@H]2O)OC1=O")
"Criterion met"
>>> category_label("C/C=C(\\C)C(=O)O[C@H]1C[C@@H](C)[C@]2(OC)CC[C@](C)(/C=C3/OC(=O)C(COC(C)=O)=C31)O2")
"Criterion met"
>>> category_label("C/C=C(/C)C(=O)O[C@H]1C[C@@H](C)[C@]2(O)CC[C@](C)(/C=C3/OC(=O)C(COC(C)=O)=C31)O2")
"Criterion not met"
>>> category_label("C=C(C)C(=O)O[C@H]1C[C@@H](C)[C@]2(O)CC[C@](C)(/C=C3/OC(=O)C(COC(C)=O)=C31)O2")
"Criterion met"
>>> category_label("C/C=C(\\C)C(=O)O[C@H]1C[C@@H](C)[C@]2(O)CC[C@](C)(/C=C3/OC(=O)C(COC(C)=O)=C31)O2")
"Criterion met"

====

biological target: Signal transducer and activator of transcription 1/ 3 (Mus musculus) (UniProt P42227+P42225); experiment: Inhibition of Stat1:Stat3 dimer DNA binding activity in EGF-stimulated mouse NIH3T3 nuclear extract expressing human EGFR assessed as residual activity at 5 uM preincubated for 30 mins followed by addition of radiolabeled probe hSIE for 30 mins by EMSA; type: cell-free
Flag rule - Activity less than 40% flags true (1); the remaining entries get false (0).

>>> category_label("C/C=C(\\C)C(=O)O[C@H]1C[C@@H](C)[C@]2(O)CC[C@](C)(/C=C3/OC(=O)C(COC(C)=O)=C31)O2")
"false (0)"
>>> category_label("C/C=C(\\C)C(=O)O[C@H]1C[C@@H](C)[C@]2(OC)CC[C@](C)(/C=C3/OC(=O)C(COC(C)=O)=C31)O2")
"false (0)"
>>> category_label("CC(=O)OCC1=C2/C(=C\\[C@@]3(C)CC[C@](O)(O3)[C@H](C)C[C@@H]2O)OC1=O")
"false (0)"
>>> category_label("C/C=C(\\C)C(=O)OCC1=C2/C(=C\\[C@@]3(C)CC[C@](O)(O3)[C@H](C)C[C@@H]2O)OC1=O")
"true (1)"
>>> category_label("C/C=C(/C)C(=O)O[C@H]1C[C@@H](C)[C@]2(O)CC[C@](C)(/C=C3/OC(=O)C(CO)=C31)O2")
"false (0)"
>>> category_label("C/C=C(/C)C(=O)O[C@H]1C[C@@H](C)[C@]2(O)CC[C@](C)(/C=C3/OC(=O)C(COC(C)=O)=C31)O2")
"false (0)"

====

molecular target: Signal transducer and activator of transcription 1 (Mus musculus) (UniProt P42225); test: Inhibition of Stat1 dimer DNA binding activity in EGF-stimulated mouse NIH3T3 nuclear extract expressing human EGFR assessed as residual activity at 5 uM preincubated for 30 mins followed by addition of radiolabeled probe hSIE for 30 mins by EMSA
Sequence (P42225 whole entry): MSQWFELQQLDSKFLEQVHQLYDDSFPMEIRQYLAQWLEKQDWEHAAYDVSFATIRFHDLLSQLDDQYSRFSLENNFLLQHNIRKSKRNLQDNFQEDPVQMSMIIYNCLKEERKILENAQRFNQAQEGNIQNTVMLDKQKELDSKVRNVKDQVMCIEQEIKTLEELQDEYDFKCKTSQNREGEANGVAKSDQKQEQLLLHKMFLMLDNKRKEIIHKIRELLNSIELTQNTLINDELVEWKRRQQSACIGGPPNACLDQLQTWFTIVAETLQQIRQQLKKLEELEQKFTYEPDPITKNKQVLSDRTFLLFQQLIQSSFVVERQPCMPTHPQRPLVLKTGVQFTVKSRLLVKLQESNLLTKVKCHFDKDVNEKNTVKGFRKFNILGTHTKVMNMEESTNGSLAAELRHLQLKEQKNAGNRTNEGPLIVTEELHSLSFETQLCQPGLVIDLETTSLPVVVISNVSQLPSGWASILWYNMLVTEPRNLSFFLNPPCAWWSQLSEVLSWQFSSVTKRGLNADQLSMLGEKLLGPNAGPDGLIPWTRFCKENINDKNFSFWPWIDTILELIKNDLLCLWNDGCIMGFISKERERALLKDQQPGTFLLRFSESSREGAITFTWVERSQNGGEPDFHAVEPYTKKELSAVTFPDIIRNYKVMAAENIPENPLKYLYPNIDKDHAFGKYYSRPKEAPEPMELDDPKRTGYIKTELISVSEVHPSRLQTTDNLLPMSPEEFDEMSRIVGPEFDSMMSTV
Each entry below lists one item and its recorded Activity value.
METRIC_NAME: Activity (%)

>>> obs_value("C/C=C(/C)C(=O)O[C@H]1C[C@@H](C)[C@]2(O)CC[C@](C)(/C=C3/OC(=O)C(COC(C)=O)=C31)O2")
60
>>> obs_value("C/C=C(/C)C(=O)O[C@H]1C[C@@H](C)[C@]2(O)CC[C@](C)(/C=C3/OC(=O)C(CO)=C31)O2")
61
>>> obs_value("CC(=O)OCC1=C2/C(=C\\[C@@]3(C)CC[C@](O)(O3)[C@H](C)C[C@@H]2O)OC1=O")
60

====

biological target: Signal transducer and activator of transcription 3 (Mus musculus) (UniProt P42227); test: Inhibition of Stat3 dimer DNA binding activity in mouse NIH3T3/vSrc nuclear extract at 5 uM preincubated for 30 mins followed by addition of radiolabeled probe hSIE for 30 mins by EMSA
Sequence (P42227 whole entry): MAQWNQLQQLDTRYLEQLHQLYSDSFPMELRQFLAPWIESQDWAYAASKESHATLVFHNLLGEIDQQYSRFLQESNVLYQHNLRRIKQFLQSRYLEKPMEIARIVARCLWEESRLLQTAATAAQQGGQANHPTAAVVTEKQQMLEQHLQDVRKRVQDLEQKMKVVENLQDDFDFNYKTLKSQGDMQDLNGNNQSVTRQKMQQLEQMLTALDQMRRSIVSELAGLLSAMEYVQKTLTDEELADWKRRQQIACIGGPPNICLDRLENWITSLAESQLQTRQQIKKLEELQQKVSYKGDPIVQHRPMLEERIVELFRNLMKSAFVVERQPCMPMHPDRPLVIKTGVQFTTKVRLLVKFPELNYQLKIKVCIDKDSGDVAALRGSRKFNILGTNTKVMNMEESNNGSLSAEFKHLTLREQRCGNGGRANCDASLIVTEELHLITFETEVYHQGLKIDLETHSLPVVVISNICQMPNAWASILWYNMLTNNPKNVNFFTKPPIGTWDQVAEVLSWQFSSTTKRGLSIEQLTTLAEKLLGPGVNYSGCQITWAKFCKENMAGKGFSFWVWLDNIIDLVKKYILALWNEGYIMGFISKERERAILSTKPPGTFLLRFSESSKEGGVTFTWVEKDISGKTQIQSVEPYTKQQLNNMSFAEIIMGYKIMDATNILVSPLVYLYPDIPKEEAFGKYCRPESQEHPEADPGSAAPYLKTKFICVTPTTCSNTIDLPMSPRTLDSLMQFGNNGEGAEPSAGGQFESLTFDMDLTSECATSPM
Activity calls are given as the source filed them. The rule behind the calls is not given here.
METRIC_NAME: inhibition

>>> obs_value("C/C=C(\\C)C(=O)O[C@H]1C[C@@H](C)[C@]2(OC)CC[C@](C)(/C=C3/OC(=O)C(COC(C)=O)=C31)O2")
"Active"
>>> obs_value("CCCC(CCC)C(=O)OCC1=C2/C(=C\\[C@@]3(C)CC[C@](O)(O3)[C@H](C)C[C@@H]2O)OC1=O")
"Active"
>>> obs_value("CCC(C)C(=O)OCC1=C2/C(=C\\[C@@]3(C)CC[C@](O)(O3)[C@H](C)C[C@@H]2O)OC1=O (stereo partly drawn)")
"Active"
